The reader will find reported Relative binding affinity values listed item by item below.
# target.entity: human somatostatin receptor subtype SSTR3 (human) (UniProt P32745)
# Sequence (P32745 whole entry): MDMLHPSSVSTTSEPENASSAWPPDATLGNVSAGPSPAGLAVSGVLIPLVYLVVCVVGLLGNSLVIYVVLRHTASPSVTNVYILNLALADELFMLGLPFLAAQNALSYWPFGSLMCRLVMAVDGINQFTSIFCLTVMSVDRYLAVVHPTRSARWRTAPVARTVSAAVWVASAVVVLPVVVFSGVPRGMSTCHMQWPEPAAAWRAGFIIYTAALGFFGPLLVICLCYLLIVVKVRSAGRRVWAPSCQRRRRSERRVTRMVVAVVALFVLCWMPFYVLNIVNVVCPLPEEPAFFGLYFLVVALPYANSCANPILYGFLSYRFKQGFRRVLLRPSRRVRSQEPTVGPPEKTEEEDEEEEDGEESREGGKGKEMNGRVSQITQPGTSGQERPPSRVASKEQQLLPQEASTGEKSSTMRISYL
# assay.notes: FACS, transfected HEK-293 cells
*1 amine or outer side, *2 acyl side, *3 side chain or, on linkers, in order; H or OH if unused. Bridges are numbered along the chain shown (N, C = ends). Primed or numbered codes have the meaning given here. [ ]: non-standard residue; d: D form. N(2-mercaptoethyl)Gly = O=C(CN(CCS[*:3])[*:1])[*:2]; FITC′ = fluorescein isothiocyanate; Orn = NCCC[C@H](N)C(=O)O; Aib = CC(C)(N)C(=O)O; GABA = NCCCC(=O)O
Quick note: give the figure in %, leave out the unit.

Example results:
{"binder": "{FITC′-GABA}-[dF]CFW[dW][Aib]TF[N(2-mercaptoethyl)Gly]-NH2 (disulfide 2-9) [Compound 13]", "unit.tag": "%", "Relative binding affinity": 6}
{"binder": "{FITC′-GABA}-[dF]RCF[dW]KTF[N(2-mercaptoethyl)Gly]-NH2 (disulfide 3-9) [Compound 2]", "unit.tag": "%", "Relative binding affinity": 4}
{"binder": "{FITC′-GABA}-[dF]CYW[dW]KTF[N(2-mercaptoethyl)Gly]-NH2 (disulfide 2-9) [Compound 4]", "unit.tag": "%", "Relative binding affinity": 15.7}
{"binder": "XCFWXXTFX (FITC-GABA-DPhe-Cys*-Phe-Trp-DTrp-HomoLys-Thr-Phe-GlyS2*-NH2 (* = S-S bond; HomoLys = homolysine; GlyS2 = N-thioethyl glycine; C-terminal amide)) [Compound 16]", "unit.tag": "%", "Relative binding affinity": 12}

Record summary for {FITC′-GABA}-[dF]CFW[dW]RTF[N(2-mercaptoethyl)Gly]-NH2 (disulfide 2-9) [Compound 15] : reported Relative binding affinity = 13.5

Record summary for {FITC′-GABA}-[dF]RCF[dW][Orn]TF[N(2-mercaptoethyl)Gly]-NH2 (disulfide 3-9) [Compound 5] : reported Relative binding affinity = 3

Record summary for {FITC′-GABA}-[dF]RCY[dW]KTF[N(2-mercaptoethyl)Gly]-NH2 (disulfide 3-9) [Compound 6] : reported Relative binding affinity = 22.5

Record summary for {FITC′-GABA}-[dF]CY[dW][Orn]TF[N(2-mercaptoethyl)Gly]-NH2 (disulfide 2-8) [Compound 7] : reported Relative binding affinity = 2

Record summary for XCFWXKTFX (FITC-GABA-DPhe-Cys*-Phe-Trp-DTrp-Lys-Thr-Phe-GlyS2*-NH2 (* = S-S bond; GlyS2 = N-thioethyl glycine; FITC-GABA on the N-terminal amine; C-terminal amide)) [Compound 1] : reported Relative binding affinity = 17

Record summary for {FITC′-GABA}-[dF]CRFF[dW]KTF[N(2-mercaptoethyl)Gly]-NH2 (disulfide 2-10) [Compound 8] : reported Relative binding affinity = 11.5

Record summary for XCFWXXTFX (FITC-GABA-DPhe-Cys*-Phe-Trp-DTrp-Orn-Thr-Phe-GlyS2*-NH2 (* = S-S bond; GlyS2 = N-thioethyl glycine; Orn = ornithine; C-terminal amide)) [Compound 3] : reported Relative binding affinity = 15.7
